Recorded EC50 values for a group of compounds are listed next.
Biological target: human TGR5 (Homo sapiens)
Construct: expressed in transfected cells; host or cells: HEK293
Sequence (Q8TDU6 1-330): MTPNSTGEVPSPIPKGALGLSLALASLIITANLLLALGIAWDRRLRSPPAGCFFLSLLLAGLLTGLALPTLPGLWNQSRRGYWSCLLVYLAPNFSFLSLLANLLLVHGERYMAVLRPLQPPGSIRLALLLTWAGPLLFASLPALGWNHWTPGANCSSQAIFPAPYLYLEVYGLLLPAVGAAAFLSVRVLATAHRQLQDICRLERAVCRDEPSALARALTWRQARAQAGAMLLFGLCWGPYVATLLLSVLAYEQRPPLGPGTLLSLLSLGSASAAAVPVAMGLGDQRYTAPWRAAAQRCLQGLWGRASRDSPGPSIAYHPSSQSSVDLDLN
Assay: Cell-based TGR5 assay (cAMP generation, HTRF)
Details: HEK293 cells stably transfected with human TGR5; cAMP by HTRF; 30 minutes at 37° C.; read-out: pEC50 Human TGR5 (converted)
Endpoint name: EC50

O=C(NCCCCSc1ccc(Cl)c(COC2(c3cnccc3-c3ccccc3OC3CC3)CC2)c1)N[C@H]1CC[C@@H](NC(=O)NC[C@H](O)[C@@H](O)[C@H](O)[C@H](O)CO)CC1 [Compound I-635] : < 100 nM
O=C(NCCCCCOc1ccc(Cl)c(COC2(c3cnccc3-c3ccccc3OC3CC3)CC2)c1)N[C@@H](CO)[C@@H](O)[C@H](O)[C@H](O)CO [Compound I-760] : 126 to 1000 nM
CN(CCCCNS(=O)(=O)c1ccc(Cl)c(COC2(c3cnccc3-c3ccccc3OC3CC3)CC2)c1)C(=O)[C@@H](O)[C@@H](O)[C@H](O)[C@@H](O)CO [Compound I-460] : < 100 nM
Cc1ccc(CCCCC(=O)NC[C@H](O)[C@@H](O)[C@H](O)[C@H](O)CO)cc1CNC1(c2cnccc2-c2ccccc2OC2CC2)CC1 (stereo in doubt) [Compound I-237] : 126 to 1000 nM
O=C(NCCCCCSc1ccc(Cl)c(COC2(c3cnccc3-c3ccccc3OC3CC3)CC2)c1)[C@@H](O)[C@@H](O)[C@H](O)[C@@H](O)CO [Compound I-611] : < 100 nM

---

target: human TGR5 (Homo sapiens, UniProt Q8TDU6); construct: expressed in transfected cells; host or cells: HEK293; assay: Cell-based TGR5 assay (cAMP generation, HTRF); details: HEK293 cells stably transfected with human TGR5; cAMP by HTRF; 30 minutes at 37° C.; read-out: pEC50 Human TGR5 (converted)
Counter-ions that a name gives are not always drawn.
Endpoint name: EC50

CC(CCCC(=O)N(CCO)C[C@H](O)[C@@H](O)[C@H](O)[C@H](O)CO)c1ccc(Cl)c(COC2(c3cnccc3-c3ccccc3OC3CC3)CC2)c1 (some centres unmarked) [Compound I-374] : < 100 nM
COCCCN(C[C@H](O)[C@@H](O)[C@H](O)[C@H](O)CO)C(=O)CCCC(C)c1ccc(Cl)c(CNC2(c3cnccc3-c3ccccc3OC3CC3)CC2)c1 (some centres unmarked) [Compound I-338] : < 100 nM
Cc1ccc(C(C)CCCC(=O)NC[C@H](O)[C@@H](O)[C@H](O)[C@H](O)CO)cc1CNC1(c2cnccc2-c2ccccc2OC2CC2)CC1 (some centres unmarked) [Compound I-257, dihydrochloride] : < 100 nM
CS(=O)(=O)NCCCN(CCCSc1ccc(Cl)c(CNC2(c3cnccc3-c3ccccc3OC3CC3)CC2)c1)C(=O)[C@@H](O)[C@@H](O)[C@H](O)[C@@H](O)CO [Compound I-588] : < 100 nM
O=C(NC[C@H](O)[C@@H](O)[C@H](O)[C@H](O)CO)NC1CCN(S(=O)(=O)c2ccc(Cl)c(COC3(c4cnccc4-c4ccccc4OC4CC4)CC3)c2)C1 (some centres unmarked) [Compound I-429] : 126 to 1000 nM

---

The entries below come with measured EC50 values attached.
Target: human TGR5 (Homo sapiens, UniProt Q8TDU6)
Construct: expressed in transfected cells; host or cells: HEK293
Sequence (Q8TDU6 1-330): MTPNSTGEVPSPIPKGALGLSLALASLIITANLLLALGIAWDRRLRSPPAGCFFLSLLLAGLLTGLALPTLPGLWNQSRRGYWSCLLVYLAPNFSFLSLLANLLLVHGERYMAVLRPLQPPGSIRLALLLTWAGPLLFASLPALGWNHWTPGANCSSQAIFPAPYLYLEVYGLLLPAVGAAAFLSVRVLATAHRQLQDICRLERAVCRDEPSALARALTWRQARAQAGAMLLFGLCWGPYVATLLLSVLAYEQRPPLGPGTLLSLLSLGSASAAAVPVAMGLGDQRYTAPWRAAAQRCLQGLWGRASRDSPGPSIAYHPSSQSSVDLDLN
Assay: Cell-based TGR5 assay (cAMP generation, HTRF)
Details: HEK293 cells stably transfected with human TGR5; cAMP by HTRF; 30 minutes at 37° C.; read-out: pEC50 Human TGR5 (converted)
Endpoint name: EC50

Cc1cc(COC2(c3cnccc3-c3ccccc3OC3CC3)CC2)c(Cl)cc1CCCCC(=O)NC[C@H](O)[C@@H](O)[C@H](O)[C@H](O)CO : < 100 nM
CN(C[C@H](O)[C@@H](O)[C@H](O)[C@H](O)CO)C(=O)NC1CCN(C(=O)CCCCc2cc(Cl)c(COC3(c4cnccc4-c4ccccc4OC4CC4)CC3)cc2Cl)CC1 (stereo in doubt) : < 100 nM
Cc1ccccc1-c1ccncc1C1(NCc2cc(Cl)ccc2Cl)CC1 : 126 to 1000 nM
O=C([C@@H](O)[C@@H](O)[C@H](O)[C@@H](O)CO)N(CCCCSc1ccc(Cl)c(CNC2(c3cnccc3-c3ccccc3OC3CC3)CC2)c1)CCN1CCS(=O)(=O)CC1 : 126 to 1000 nM
CC(C)N(CCCCNC(=O)[C@@H](O)[C@@H](O)[C@H](O)[C@@H](O)CO)S(=O)(=O)c1cc(COC2(c3cnccc3-c3ccccc3OC3CC3)CC2)c(Cl)cc1F : < 100 nM
C[C@@H](CCCC(=O)NC[C@H](O)[C@@H](O)[C@H](O)[C@H](O)CO)c1ccc(Cl)c(CNC2(c3cnccc3-c3ccccc3OC3CC3)CC2)c1 (single isomer, unassigned) : < 100 nM
Cc1cc(COC2(c3cnccc3-c3ccccc3OC3CC3)CC2)c(Cl)cc1CCCCNC(=O)N1CCN(C[C@H](O)[C@@H](O)[C@@H](O)[C@H](O)CO)CC1 : < 100 nM
CC(C)(CC(=O)O)CC(=O)N(CCCCc1cc(Cl)c(COC2(c3cnccc3-c3ccccc3OC3CC3)CC2)cc1Cl)C[C@H](O)[C@@H](O)[C@H](O)[C@H](O)CO : 126 to 1000 nM
Cc1ccc(C(C)CCCNC(=O)[C@@H](O)[C@@H](O)[C@H](O)[C@@H](O)CO)cc1CNC1(c2cnccc2-c2ccccc2OC2CC2)CC1 (some centres unmarked) : < 100 nM
CSc1ccc(Cl)c(COC2(c3cnccc3-c3ccccc3OC3CC3)CC2)c1 : < 100 nM
CC(=O)N(CCSc1ccc(Cl)c(COC2(c3cnccc3-c3ccccc3OC3CC3)CC2)c1)C[C@H](O)[C@@H](O)[C@H](O)[C@H](O)CO : < 100 nM
Clc1ccc(COC2(c3cnccc3-c3ccccc3OC3CC3)CC2)c(Cl)c1 : 126 to 1000 nM
O=C(COC1CCN(S(=O)(=O)c2ccc(Cl)c(COC3(c4cnccc4-c4ccccc4OC4CC4)CC3)c2)CC1)NC[C@H](O)[C@@H](O)[C@H](O)[C@H](O)CO : < 100 nM
CN(C[C@H](O)[C@@H](O)[C@H](O)[C@H](O)CO)C(=O)c1ccc(CSc2ccc(Cl)c(COC3(c4cnccc4-c4ccccc4OC4CC4)CC3)c2)cc1 : < 100 nM
CS(=O)(=O)CCN(C[C@H](O)[C@@H](O)[C@H](O)[C@H](O)CO)C(=O)CCCCc1cc(Cl)c(COC2(c3cnccc3-c3ccccc3OC3CC3)CC2)cc1Cl : < 100 nM
Clc1cccc(CNC2(c3cnccc3-c3ccccc3OC3CC3)CC2)c1Cl : 126 to 1000 nM
CC(=O)NCCCN(CCCCSc1ccc(Cl)c(CNC2(c3cnccc3-c3ccccc3OC3CC3)CC2)c1)C(=O)[C@@H](O)[C@@H](O)[C@H](O)[C@@H](O)CO : 126 to 1000 nM
Clc1ccc(Cl)c(CNC2(c3cnccc3-c3ccccc3C3CC3)CC2)c1 : 126 to 1000 nM
CC(=O)NCCCCN(CCCSc1ccc(Cl)c(CNC2(c3cnccc3-c3ccccc3OC3CC3)CC2)c1)C(=O)[C@@H](O)[C@@H](O)[C@H](O)[C@@H](O)CO : 126 to 1000 nM
CC(CCCC(=O)N(CCN(C)C)C[C@H](O)[C@@H](O)[C@H](O)[C@H](O)CO)c1ccc(Cl)c(CNC2(c3cnccc3-c3ccccc3OC3CC3)CC2)c1 (some centres unmarked) : 126 to 1000 nM
CC(CCCCNC(=O)NC[C@H](O)[C@@H](O)[C@H](O)[C@H](O)CO)c1ccc(Cl)c(CNC2(c3cnccc3-c3ccccc3OC3CC3)CC2)c1 (some centres unmarked) : < 100 nM
C[C@H](CCCC(=O)NC[C@H](O)[C@@H](O)[C@H](O)[C@H](O)CO)c1ccc(Cl)c(CNC2(c3cnccc3-c3ccccc3OC3CC3)CC2)c1 (single isomer, unassigned) : < 100 nM
CN(C[C@H](O)[C@@H](O)[C@H](O)[C@H](O)CO)C(=O)NCCCCCc1cc(Cl)c(CNC2(c3cnccc3-c3ccccc3OC3CC3)CC2)cc1Cl (stereo in doubt) : < 100 nM
